Each record here notes measured IKZF2 % protein reduction at 10 µM.
- MEASURED TARGET: IKZF2 (Helios) (Homo sapiens, UniProt Q96SW2+Q9UKS7)
- Sequence (Q9UKS7 whole entry): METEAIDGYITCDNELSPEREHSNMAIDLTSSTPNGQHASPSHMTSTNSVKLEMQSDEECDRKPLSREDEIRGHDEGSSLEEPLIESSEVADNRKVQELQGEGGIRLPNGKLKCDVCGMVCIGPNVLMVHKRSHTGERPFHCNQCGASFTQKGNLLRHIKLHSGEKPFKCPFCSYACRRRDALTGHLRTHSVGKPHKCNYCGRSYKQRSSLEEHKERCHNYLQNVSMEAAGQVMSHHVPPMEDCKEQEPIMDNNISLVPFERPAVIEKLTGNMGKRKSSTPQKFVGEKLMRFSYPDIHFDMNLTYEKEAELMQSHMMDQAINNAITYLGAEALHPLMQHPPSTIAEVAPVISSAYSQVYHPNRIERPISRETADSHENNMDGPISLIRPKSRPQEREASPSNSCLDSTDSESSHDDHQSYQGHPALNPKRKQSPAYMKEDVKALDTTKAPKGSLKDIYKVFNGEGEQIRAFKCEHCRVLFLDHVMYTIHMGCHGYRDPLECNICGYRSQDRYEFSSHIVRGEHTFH
- Sequence (Q96SW2 whole entry): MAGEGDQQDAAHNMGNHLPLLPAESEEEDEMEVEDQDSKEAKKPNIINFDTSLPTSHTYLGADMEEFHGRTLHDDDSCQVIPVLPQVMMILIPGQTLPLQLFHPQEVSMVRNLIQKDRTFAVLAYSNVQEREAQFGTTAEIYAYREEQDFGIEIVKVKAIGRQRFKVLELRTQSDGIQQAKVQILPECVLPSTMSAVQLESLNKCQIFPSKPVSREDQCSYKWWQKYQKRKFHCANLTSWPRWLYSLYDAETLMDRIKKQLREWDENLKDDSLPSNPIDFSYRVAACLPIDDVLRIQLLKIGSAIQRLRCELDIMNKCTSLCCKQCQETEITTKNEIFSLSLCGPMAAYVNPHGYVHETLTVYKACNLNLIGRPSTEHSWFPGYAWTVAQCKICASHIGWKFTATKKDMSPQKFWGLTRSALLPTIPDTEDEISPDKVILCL
- Sequence (Q16531 whole entry partner): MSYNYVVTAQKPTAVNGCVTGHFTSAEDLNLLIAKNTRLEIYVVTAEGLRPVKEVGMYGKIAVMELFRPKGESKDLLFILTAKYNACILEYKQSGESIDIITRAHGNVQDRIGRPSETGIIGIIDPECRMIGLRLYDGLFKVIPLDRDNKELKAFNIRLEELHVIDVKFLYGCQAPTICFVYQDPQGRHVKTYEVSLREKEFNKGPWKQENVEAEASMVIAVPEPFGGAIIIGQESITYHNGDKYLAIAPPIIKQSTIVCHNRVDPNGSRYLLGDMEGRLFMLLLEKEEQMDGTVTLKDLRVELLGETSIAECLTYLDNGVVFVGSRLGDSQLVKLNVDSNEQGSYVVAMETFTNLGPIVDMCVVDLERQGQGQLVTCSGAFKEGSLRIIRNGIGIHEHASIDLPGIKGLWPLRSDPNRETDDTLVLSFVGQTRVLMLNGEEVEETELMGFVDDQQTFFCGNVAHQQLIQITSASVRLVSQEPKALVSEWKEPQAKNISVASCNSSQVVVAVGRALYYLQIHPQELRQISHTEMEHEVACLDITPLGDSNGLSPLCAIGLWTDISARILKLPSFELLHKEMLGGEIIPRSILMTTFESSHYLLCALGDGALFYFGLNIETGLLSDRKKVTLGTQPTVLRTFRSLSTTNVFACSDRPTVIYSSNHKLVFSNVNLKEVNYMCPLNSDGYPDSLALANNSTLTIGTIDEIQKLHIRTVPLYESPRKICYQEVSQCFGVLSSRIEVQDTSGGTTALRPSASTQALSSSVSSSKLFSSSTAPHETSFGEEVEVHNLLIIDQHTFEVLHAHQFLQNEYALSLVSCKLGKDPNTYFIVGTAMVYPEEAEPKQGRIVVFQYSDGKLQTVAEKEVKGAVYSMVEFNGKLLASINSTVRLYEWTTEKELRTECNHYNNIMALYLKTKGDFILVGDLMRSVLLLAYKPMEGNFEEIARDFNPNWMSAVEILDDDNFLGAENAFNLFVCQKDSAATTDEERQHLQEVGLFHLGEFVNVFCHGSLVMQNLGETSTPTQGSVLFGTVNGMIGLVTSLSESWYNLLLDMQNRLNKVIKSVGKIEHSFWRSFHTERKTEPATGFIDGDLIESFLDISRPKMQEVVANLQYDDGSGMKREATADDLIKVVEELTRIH
- ASSAY EXPLANATION: Prolabel quantification of IKZF2 protein levels in 293GT cells
- Assay type: cell-based
- EXPERIMENTAL SETUP: 24 h, Pro-label assay, 293GT cells, 10 μM, read-out: IKZF2 % protein reduction at 10 μM, 24 h

# count of solved cases: 7
>  <COMPOUND>
N[C@H]1CCC[C@@H]1Oc1cc2c(cc1F)C(=O)N(C1CCC(=O)NC1=O)C2 (some centres unmarked)

>  <MEASURED PROPERTY>
IKZF2 % protein reduction at 10 µM

>  <MEASURED RESULT>
30%

$$$$
>  <COMPOUND>
COC1CC(CNC2CCCCC2Oc2ccc3c(c2)CN(C2CCC(=O)NC2=O)C3=O)C1 (single isomer, unassigned)

>  <MEASURED PROPERTY>
IKZF2 % protein reduction at 10 µM

>  <MEASURED RESULT>
86%

$$$$
>  <COMPOUND>
O=C1CCC(N2Cc3cc(O[C@H]4CCCC[C@@H]4NCC4CC(F)(F)C4)ccc3C2=O)C(=O)N1 (some centres unmarked)

>  <MEASURED PROPERTY>
IKZF2 % protein reduction at 10 µM

>  <MEASURED RESULT>
84%

$$$$
>  <COMPOUND>
CC1CCN([C@H]2CCC[C@@H]2Oc2ccc3c(c2)CN(C2CCC(=O)NC2=O)C3=O)CC1 (some centres unmarked)

>  <MEASURED PROPERTY>
IKZF2 % protein reduction at 10 µM

>  <MEASURED RESULT>
77%

$$$$
>  <COMPOUND>
O=C1CCC(N2Cc3cc(O[C@H]4CCC[C@@H]4N4CC5(COC5)C4)ccc3C2=O)C(=O)N1 (some centres unmarked)

>  <MEASURED PROPERTY>
IKZF2 % protein reduction at 10 µM

>  <MEASURED RESULT>
44%

$$$$
>  <COMPOUND>
O=C1CCC(N2Cc3cc(O[C@H]4CCCC[C@@H]4NCc4ccc(F)cc4F)ccc3C2=O)C(=O)N1 (some centres unmarked)

>  <MEASURED PROPERTY>
IKZF2 % protein reduction at 10 µM

>  <MEASURED RESULT>
65%

$$$$
>  <COMPOUND>
N#CC1(CN[C@H]2CCCC[C@@H]2Oc2ccc3c(c2)CN(C2CCC(=O)NC2=O)C3=O)CCC1 (some centres unmarked)

>  <MEASURED PROPERTY>
IKZF2 % protein reduction at 10 µM

>  <MEASURED RESULT>
59%

$$$$

As a next step, examine the compound that follows.
Record for O=C1CCC(N2Cc3cc(O[C@H]4CCCC[C@@H]4N4CC(OCc5ccccc5)C4)ccc3C2=O)C(=O)N1 (some centres unmarked) under target or system IKZF2 (Helios) (Homo sapiens, UniProt Q96SW2+Q9UKS7): IKZF2 % protein reduction at 10 µM reported as 91%
